// provenance: paper PMC10816986

- EXPERIMENT_NOTES: Thermal denaturation followed by CD spectroscopy
- Type: physicochemical
- REPORTED_CONDITIONS: apoprotein, single-stage model
QUANTITY_KIND: ΔH (enthalpy of unfolding)
The number alone won't do; follow it with the unit.

1) Y143F ALKBH3: ALKBH3 mutant, Tyr143 replaced with Phe (protein, UniProt Q96Q83 1-286, looked up, variant Y143F) Alpha-ketoglutarate-dependent …: MEEKRRRARVQGAWAAPVKSQAIAQPATTAKSHLHQKPGQTWKNKEHHLSDREFVFKEPQQVVRRAPEPRVIDREGVYEISLSPTGVSRVCLYPGFVDVKEADWILEQLCQDVPWKQRTGIREDITYQQPRLTAWYGELPYTFSRITMEPNPHWHPVLRTLKNRIEENTGHTFNSLLCNLYRNEKDSVDWHSDDEPSLGRCPIIASLSFGATRTFEMRKKPPPEENGDYTYVERVKIPLDHGTLLIMEGATQADWQHRVPKEYHSREPRVNLTFRTVYPDPRGAPW ... 75 ± 5 kcal/mol
2) H191A ALKBH3: ALKBH3 mutant, His191 replaced with Ala (protein, UniProt Q96Q83 1-286, looked up, variant H191A) Alpha-ketoglutarate-dependent …: MEEKRRRARVQGAWAAPVKSQAIAQPATTAKSHLHQKPGQTWKNKEHHLSDREFVFKEPQQVVRRAPEPRVIDREGVYEISLSPTGVSRVCLYPGFVDVKEADWILEQLCQDVPWKQRTGIREDITYQQPRLTAWYGELPYTYSRITMEPNPHWHPVLRTLKNRIEENTGHTFNSLLCNLYRNEKDSVDWASDDEPSLGRCPIIASLSFGATRTFEMRKKPPPEENGDYTYVERVKIPLDHGTLLIMEGATQADWQHRVPKEYHSREPRVNLTFRTVYPDPRGAPW ... 127 ± 9 kcal/mol
3) L177A ALKBH3: ALKBH3 mutant, Leu177 replaced with Ala (protein, UniProt Q96Q83 1-286, looked up, variant L177A) Alpha-ketoglutarate-dependent …: MEEKRRRARVQGAWAAPVKSQAIAQPATTAKSHLHQKPGQTWKNKEHHLSDREFVFKEPQQVVRRAPEPRVIDREGVYEISLSPTGVSRVCLYPGFVDVKEADWILEQLCQDVPWKQRTGIREDITYQQPRLTAWYGELPYTYSRITMEPNPHWHPVLRTLKNRIEENTGHTFNSLACNLYRNEKDSVDWHSDDEPSLGRCPIIASLSFGATRTFEMRKKPPPEENGDYTYVERVKIPLDHGTLLIMEGATQADWQHRVPKEYHSREPRVNLTFRTVYPDPRGAPW ... 79 ± 5 kcal/mol

In the following, a different molecule is considered.
INPUT: Which ΔH (enthalpy of unfolding) reading was recorded for the molecule Y143A ALKBH3: ALKBH3 mutant, Tyr143 replaced with Ala (protein, UniProt Q96Q83 1-286, looked up, variant Y143A) Alpha-ketoglutarate-dependent …: MEEKRRRARVQGAWAAPVKSQAIAQPATTAKSHLHQKPGQTWKNKEHHLSDREFVFKEPQQVVRRAPEPRVIDREGVYEISLSPTGVSRVCLYPGFVDVKEADWILEQLCQDVPWKQRTGIREDITYQQPRLTAWYGELPYTASRITMEPNPHWHPVLRTLKNRIEENTGHTFNSLLCNLYRNEKDSVDWHSDDEPSLGRCPIIASLSFGATRTFEMRKKPPPEENGDYTYVERVKIPLDHGTLLIMEGATQADWQHRVPKEYHSREPRVNLTFRTVYPDPRGAPW ?
OUTPUT: 54 ± 2 kcal/mol
